tested on: DU-145; experiment: Antiproliferative activity against human DU145 cells after 72 hrs by MTT assay; assay type: functional, cell-based; details: DU-145, 72 h
API: label(entry) gives Yes if the entry's IC50 is strictly smaller than 200 µM; on equality or larger values it gives No.

Challenge: Find out if reported IC50 for Ac-LLLLRVKRS-NH2 is less than 200 µM
Response given: No

Challenge: Given the entry Ac-LLLLRVKRM-NH2 , would its reported IC50 be below 200 µM?
Response given: Yes

Challenge: Determine whether this substance shows IC50 lower than 200 µM (ties excluded): Ac-LLLLRVKRD-NH2
Response given: No

Challenge: Threshold test, IC50 < 200 µM: Ac-LLLLRVKRI-NH2
Response given: Yes

Challenge: Lab note: confirm whether the reported IC50 for this substance is below 200 µM, equality not counting. substance: Ac-LLLLRVKRY-NH2
Response given: Yes

Challenge: Just wondering, is IC50 of Ac-LLLLRVKRW-NH2 below 200 µM?
Response given: Yes

Challenge: Is IC50 strictly under 200 µM for the entry Ac-LLLLRVKRQ-NH2 ?
Response given: No

Challenge: Identify whether the substance Ac-LLLLRVKRF-NH2 records IC50 below 200 µM.
Response given: Yes

Challenge: I wonder whether Ac-LLLLRVKRV-NH2 has IC50 below 200 µM. Can you tell?
Response given: Yes

Challenge: IC50 strictly < 200 µM for this substance? Ac-LLLLRVKRT-NH2
Response given: Yes

Challenge: Decide: IC50 of Ac-LLLLRVKRK-NH2 strictly below 200 µM?
Response given: Yes

Challenge: Is the reported IC50 for Ac-LLLLRVKRP-NH2 strictly below 200 µM?
Response given: No

Challenge: Does this substance meet the criterion IC50 < 200 µM? Ac-LLLLRVKRL-NH2
Response given: Yes

Challenge: Take the substance Ac-LLLLRVKRR-NH2 and say whether its IC50 is less than 200 µM.
Response given: Yes

Challenge: IC50 under 200 µM? Item: Ac-LLLLRVKRA-NH2
Response given: Yes

---

tested on: LNCaP; test: Antiproliferative activity against human LNCAP cells after 72 hrs by MTT assay; type: functional, cell-based
Where a SMILES comes first, the peptide text is derived from it. [ ]: non-standard residue; d: D form. The star is where a group is joined. NH(4-amidinobenzyl) = N=C(N)c1ccc(CN*)cc1; Phe(4-NH2) = Nc1ccc(C[C@H](N)C(=O)O)cc1
OBSERVATION_TYPE: pIC50
Keep it numeric: pIC50 is minus log10 of the concentration in mol/L.

Challenge: Output measured pIC50 for this item: CC(=O)N[C@H](CC(C)C)C(=O)N[C@@H](CC(C)C)C(=O)N[C@@H](CC(C)C)C(=O)N[C@@H](CC(C)C)C(=O)N[C@@H](CCCNC(=N)N)C(=O)N[C@H](C(=O)N[C@@H](CCCCN)C(=O)NCc1ccc(C(=N)N)cc1)C(C)C (Ac-[dL]LLLRVK-{NH(4-amidinobenzyl)})
Response given: 4.35

Challenge: Please look at this compound and report its pIC50: CC(=O)N[C@@H](CC(C)C)C(=O)N[C@@H](CC(C)C)C(=O)N[C@@H](CC(C)C)C(=O)N[C@@H](CC(C)C)C(=O)N[C@@H](CCCNC(=N)N)C(=O)N[C@H](C(=O)N[C@@H](CCCCN)C(=O)N[C@@H](CCCNC(=N)N)C(=O)N[C@@H](Cc1ccc(N)cc1)C(N)=O)C(C)C (Ac-LLLLRVKR[Phe(4-NH2)]-NH2)
Response given: 3.77
